study target: human orexin-1 receptor (Homo sapiens, UniProt O43613)
Construct: expressed in transfected cells; host or cells: CHO (Chinese hamster ovary) cells, kept under G418 selection
Sequence (O43613 whole entry): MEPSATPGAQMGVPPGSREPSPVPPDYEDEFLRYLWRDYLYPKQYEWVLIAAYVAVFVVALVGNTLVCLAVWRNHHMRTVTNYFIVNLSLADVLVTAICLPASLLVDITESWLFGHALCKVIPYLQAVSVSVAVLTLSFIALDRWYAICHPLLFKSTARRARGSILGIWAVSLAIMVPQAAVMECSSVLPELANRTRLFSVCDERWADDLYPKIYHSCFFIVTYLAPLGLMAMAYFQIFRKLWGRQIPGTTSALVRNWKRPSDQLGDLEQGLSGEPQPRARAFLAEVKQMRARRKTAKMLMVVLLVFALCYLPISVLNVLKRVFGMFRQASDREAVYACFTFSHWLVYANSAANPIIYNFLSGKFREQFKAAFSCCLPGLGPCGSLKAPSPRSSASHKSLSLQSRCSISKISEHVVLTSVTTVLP
experiment notes: Intracellular calcium measurement (FLIPR Tetra), orexin receptor antagonistic activity, OX1
Format: cell-based
test settings: CHO cells expressing human orexin-1 receptor, 3 nM orexin-A, conditions B
Experimental: The orexin receptor antagonistic activity of the compounds of formula (I) is determined in accordance with one of the following experimental methods. […] Within the Fluorescent Imaging Plate Reader (FLIPR Tetra, Molecular Devices), antagonists are added to the plate in a volume of 10 μl/well, incubated for 10 min and finally 10 μl/well of agonist is added. […] The calculated IC50 values of the compounds may fluctuate depending on the daily cellular assay performance. […]
Classify by IC50. Ranges: low (below 100 nM), mid (100 nM to below 200 nM), high (200 nM or more)

Lab note: sort Cc1cccc(-c2sc(N)nc2C(=O)N(CCc2c[nH]c3c(C)cccc23)CC2CC2)c1 into the matching IC50 band.
low
